tested on: S. aureus ATCC 25923 DMST 8840; experiment: microbe, parasite or virus in culture; format: cell-based; details: Staphylococcus aureus, ATCC25923, read-out: Concentration of MBC
VALUE KIND: MBC

COc1ccc2c(=O)c3c(oc2c1)COc1cc(OC)c(OC)cc1-3 [Compound 3, dehydromunduserone]    > 3000 µg/mL
COc1cc2c(cc1OC)[C@H]1[C@H](O)c3ccc4occc4c3O[C@@H]1CO2 [Compound 1, 6aS, 12aS, 12S-elliptinol]    > 3000 µg/mL
O=C(N[C@H](CO)[C@H](O)c1ccc([N+](=O)[O-])cc1)C(Cl)Cl [Chloramphenicol, reference compound]    125 µg/mL

Turning now to a further compound:
Prompt line: Which value of MBC has been reported for COc1ccc2c(c1)O[C@@H]1COc3cc(OC)c(OC)cc3[C@H]1[C@@H]2O [Compound 2, 6aS, 12aS, 12S-munduserol] in the records?
Response line: > 3000 µg/mL

All figures here come from paper PMC10161675.
